System: Escherichia coli TOP10;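 further: peptides expressed intracellularly from a pBAD plasmid library in pooled LB shake-flask culture, induced with 0.3% L-arabinose, DNA abundance read by NGS, three biological replicates, DESeq2 with apeglm shrinkage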
test_name: shrunken log2 fold change of peptide-encoding DNA abundance (4.5 h post-induction vs induction); higher = less antimicrobial activity (less host growth inhibition)
condition_description: time post-induction: 4.5 h; library: site-saturation at positions 5, 18, 19, 20
In this section, each of the sequences is paired with its reported shrunken log2 fold change.
readout_label: shrunken log2 fold change

In [3]: df
Out[3]:
        biopolymer_sequence              readout_label  measured
 0  RRIRERPPRLPRPRPRPPTLPRP  shrunken log2 fold change     0.162
 1  RRIRFRPPRLPRPRPRPDCGPRP  shrunken log2 fold change    -0.107
 2  RRIRPRPPRLPRPRPRPIMKPRP  shrunken log2 fold change    -0.411
 3  RRIRTRPPRLPRPRPRPEGNPRP  shrunken log2 fold change    -0.311
 4  RRIRTRPPRLPRPRPRPDDLPRP  shrunken log2 fold change    0.0162
 5  RRIRPRPPRLPRPRPRPDLQPRP  shrunken log2 fold change    -0.221
 6  RRIRTRPPRLPRPRPRPCGMPRP  shrunken log2 fold change   -0.0074
 7  RRIRQRPPRLPRPRPRPWDGPRP  shrunken log2 fold change     0.199
 8  RRIRMRPPRLPRPRPRPDERPRP  shrunken log2 fold change      1.11
 9  RRIRVRPPRLPRPRPRPKNCPRP  shrunken log2 fold change    -0.183
10  RRIRLRPPRLPRPRPRPHSMPRP  shrunken log2 fold change    -0.506
11  RRIRKRPPRLPRPRPRPGLDPRP  shrunken log2 fold change     0.626
12  RRIRRRPPRLPRPRPRPWLIPRP  shrunken log2 fold change    -0.319
13  RRIRWRPPRLPRPRPRPVAFPRP  shrunken log2 fold change     0.313
14  RRIRERPPRLPRPRPRPGGHPRP  shrunken log2 fold change    0.0363
15  RRIRRRPPRLPRPRPRPTNVPRP  shrunken log2 fold change   -0.0322
16  RRIRLRPPRLPRPRPRPDNNPRP  shrunken log2 fold change    -0.444
17  RRIRQRPPRLPRPRPRPRHLPRP  shrunken log2 fold change     -0.33
18  RRIRGRPPRLPRPRPRPSEVPRP  shrunken log2 fold change     0.425
19  RRIRWRPPRLPRPRPRPQIKPRP  shrunken log2 fold change     -0.21
20  RRIRRRPPRLPRPRPRPVAIPRP  shrunken log2 fold change     0.687
21  RRIRCRPPRLPRPRPRPSGMPRP  shrunken log2 fold change     -0.35
22  RRIRLRPPRLPRPRPRPQGPPRP  shrunken log2 fold change    -0.191
23  RRIRVRPPRLPRPRPRPNQVPRP  shrunken log2 fold change    -0.185
24  RRIRFRPPRLPRPRPRPWNLPRP  shrunken log2 fold change    0.0325
25  RRIRYRPPRLPRPRPRPRKKPRP  shrunken log2 fold change   -0.0257
26  RRIRIRPPRLPRPRPRPTDHPRP  shrunken log2 fold change    -0.368
27  RRIRWRPPRLPRPRPRPSGCPRP  shrunken log2 fold change   -0.0452
28  RRIRVRPPRLPRPRPRPCQTPRP  shrunken log2 fold change     -0.03
29  RRIRHRPPRLPRPRPRPSTIPRP  shrunken log2 fold change   -0.0522
30  RRIRPRPPRLPRPRPRPQRAPRP  shrunken log2 fold change     0.381
31  RRIRPRPPRLPRPRPRPRSCPRP  shrunken log2 fold change     0.395
32  RRIRWRPPRLPRPRPRPNYKPRP  shrunken log2 fold change    -0.552
33  RRIRNRPPRLPRPRPRPALQPRP  shrunken log2 fold change     0.234
34  RRIRFRPPRLPRPRPRPVATPRP  shrunken log2 fold change     0.547
35  RRIRPRPPRLPRPRPRPLRKPRP  shrunken log2 fold change     0.319
36  RRIRDRPPRLPRPRPRPWQAPRP  shrunken log2 fold change   -0.0194
37  RRIRVRPPRLPRPRPRPFASPRP  shrunken log2 fold change    0.0656
38  RRIRWRPPRLPRPRPRPNLRPRP  shrunken log2 fold change     0.174
39  RRIRCRPPRLPRPRPRPPTLPRP  shrunken log2 fold change   -0.0423
40  RRIRARPPRLPRPRPRPTWKPRP  shrunken log2 fold change   -0.0384
41  RRIRGRPPRLPRPRPRPVHEPRP  shrunken log2 fold change     0.434
42  RRIRDRPPRLPRPRPRPNTPPRP  shrunken log2 fold change   -0.0665
43  RRIRYRPPRLPRPRPRPHLAPRP  shrunken log2 fold change      0.13
44  RRIRVRPPRLPRPRPRPYHMPRP  shrunken log2 fold change    -0.305
45  RRIRKRPPRLPRPRPRPHVCPRP  shrunken log2 fold change  -0.00289
46  RRIRSRPPRLPRPRPRPAIRPRP  shrunken log2 fold change   -0.0385
47  RRIRRRPPRLPRPRPRPWTCPRP  shrunken log2 fold change    0.0743
48  RRIRSRPPRLPRPRPRPQKSPRP  shrunken log2 fold change    -0.181
49  RRIRNRPPRLPRPRPRPLEGPRP  shrunken log2 fold change     0.033
50  RRIRARPPRLPRPRPRPTPNPRP  shrunken log2 fold change     0.602
51  RRIRNRPPRLPRPRPRPPPKPRP  shrunken log2 fold change       1.5
52  RRIRIRPPRLPRPRPRPNTEPRP  shrunken log2 fold change   -0.0443
53  RRIRDRPPRLPRPRPRPMPRPRP  shrunken log2 fold change      0.26
54  RRIRARPPRLPRPRPRPRCMPRP  shrunken log2 fold change      1.62
55  RRIRHRPPRLPRPRPRPGPRPRP  shrunken log2 fold change     0.417
56  RRIRARPPRLPRPRPRPTVGPRP  shrunken log2 fold change     0.794
57  RRIRTRPPRLPRPRPRPHWMPRP  shrunken log2 fold change    -0.243
58  RRIRNRPPRLPRPRPRPVWCPRP  shrunken log2 fold change    -0.226
59  RRIRYRPPRLPRPRPRPIQVPRP  shrunken log2 fold change   -0.0153
60  RRIRIRPPRLPRPRPRPFVKPRP  shrunken log2 fold change    -0.691
61  RRIRRRPPRLPRPRPRPAICPRP  shrunken log2 fold change     0.134
62  RRIRARPPRLPRPRPRPPANPRP  shrunken log2 fold change       3.4
